max response overview
# Assay name: qHTS Assay for Lipid Storage Modulators (AID 1519)
# Protocol conditions: Drosophila S3 cells, BODIPY lipid droplet/cell ratio, laser cytometry; measured here: lipid channel max response; cells loaded with oleic acid
# Method: NIH Molecular Libraries Probe Production Centers Network [MLPCN] NIH Chemical Genomics Center [NCGC] Assay Submitter (PI): Beller, Mathias; Max-Planck-Institut fur Biophysikalische Chemie […] We dispensed 4 uL of cells at 1.25 x 10^6 cells/mL into LoBase Aurora COC 1,536-well plates (black walled, clear bottom) with a bottle-valve solenoid-based dispenser (Aurora) to obtain 5,000 cells/well. […] The ratio of the total intensity in PMT channel 1 over total intensity of channel 3 was also calculated. […]
Records with an inconclusive call do not appear.
Give the number; % is assumed, so skip it.

Use these answered entries as a reference point.
Cc1cccc(CN2CCN([C@@H](c3ccccc3)c3ccc(Cl)cc3)CC2)c1 : -24.7
C=C(C)[C@H]1CC[C@]2(C(=O)O)CC[C@]3(C)[C@@H](CC[C@H]4[C@@]5(C)CC[C@@H](O)C(C)(C)[C@@H]5CC[C@@]43C)[C@H]12 : -17.2
COc1cc(O)ccc1C(C)=O : 34.1
CO[C@]1(NC(=O)Cc2cccs2)C(=O)N2C(C(=O)O)=C(COC(N)=O)CS[C@H]21 : 0.943
CO/N=C(\C(=O)N[C@@H]1C(=O)N2C(C(=O)O)=C(COC(N)=O)CS[C@@H]12)c1ccco1 : -2.21
Clc1cnccn1 : 10.5
COC(=O)C1=C(C)NC(C)=C(C(=O)OC(C)C)[C@H]1c1cccc2nonc12 : -22.3
N[C@@H]1C(O)OC(CO)C(O)C1O (stereo partly specified) : 20.8

Respond only with max response recorded for O=c1cc(-c2ccc(O)cc2)oc2cc(OC3OC(CO)C(O)C(O)[C@H]3O[C@@H]3OC[C@@](O)(CO)C3O)cc(O)c12 (stereo partly specified) 26.6

Using the record for "COC(=O)CCCC[C@@H]1SC[C@@H]2NC(=O)N[C@@H]21" , state its measured max response. 0.263

Tell me measured max response for [N-]=[N+]=Nc1nc2c(N)ncnc2n1C1OC(CO)C(O)C1O (stereo unspecified) please. 1.58

For the compound OCC1OC(n2cnc3c(NCc4ccco4)ncnc32)C(O)C1O (stereo unspecified) , give its reported max response. -3.92

Fill in reported max response for this entry: "COc1c(O[C@H]2O[C@@H](CO)[C@@H](O)[C@@H](O)[C@@H]2O)cc2c(c1OC)-c1ccc(SC)c(=O)cc1[C@H](NC(C)=O)CC2" 2.91

Let me know recorded max response for CC1(C)SC2C(NC(=O)C(NC(=O)N3CCNC3=O)c3ccccc3)C(=O)N2C1C(=O)O (stereo unspecified) , thanks. 28.9

Consider the compound "CN1CCC[C@@H](CC2c3ccccc3Sc3ccccc32)C1" and give its recorded max response. -6.24

Hello, please tell me recorded max response for this one: "COc1cc(O)cc(OC)c1OC" -12.4

Quote max response reported for CCCCCCCCCCCCC(C(=O)O)C(C)C(=O)O (stereo unspecified) please. 14

---

# Target under test: Rap guanine nucleotide exchange factor 4 (Homo sapiens) (UniProt Q8WZA2)
# Sequence (Q8WZA2 whole entry, looked up): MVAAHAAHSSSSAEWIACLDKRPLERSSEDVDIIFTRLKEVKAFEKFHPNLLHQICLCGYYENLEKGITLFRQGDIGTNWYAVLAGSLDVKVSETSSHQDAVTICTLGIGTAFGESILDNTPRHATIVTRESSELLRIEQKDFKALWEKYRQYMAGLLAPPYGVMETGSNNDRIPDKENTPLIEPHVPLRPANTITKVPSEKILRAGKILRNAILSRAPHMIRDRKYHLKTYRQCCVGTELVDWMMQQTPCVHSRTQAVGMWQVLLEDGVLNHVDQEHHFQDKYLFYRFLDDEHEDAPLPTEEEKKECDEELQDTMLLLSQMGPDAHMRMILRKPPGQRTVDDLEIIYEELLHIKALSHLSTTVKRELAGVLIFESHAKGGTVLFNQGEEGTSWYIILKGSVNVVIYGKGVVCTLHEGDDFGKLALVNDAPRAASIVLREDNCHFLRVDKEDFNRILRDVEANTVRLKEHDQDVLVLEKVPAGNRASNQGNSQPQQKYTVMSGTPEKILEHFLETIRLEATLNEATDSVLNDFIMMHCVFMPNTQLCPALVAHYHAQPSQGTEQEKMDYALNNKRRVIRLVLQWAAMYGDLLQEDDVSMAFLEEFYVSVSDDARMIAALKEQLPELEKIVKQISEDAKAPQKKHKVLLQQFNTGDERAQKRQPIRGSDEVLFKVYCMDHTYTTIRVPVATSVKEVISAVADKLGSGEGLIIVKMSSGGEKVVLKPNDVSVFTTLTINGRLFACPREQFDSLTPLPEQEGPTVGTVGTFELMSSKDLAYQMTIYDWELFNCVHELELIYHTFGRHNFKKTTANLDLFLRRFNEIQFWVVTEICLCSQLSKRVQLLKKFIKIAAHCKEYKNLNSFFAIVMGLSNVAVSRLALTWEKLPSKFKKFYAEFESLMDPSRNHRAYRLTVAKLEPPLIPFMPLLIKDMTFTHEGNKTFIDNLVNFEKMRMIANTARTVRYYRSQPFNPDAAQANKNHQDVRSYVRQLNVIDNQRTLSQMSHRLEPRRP
# Assay name: Confirmatory qHTS for antagonist of cAMP-regulated guanine nucleotide exchange factor 4 (EPAC2) (AID 1645885); note: nearly all actives have a fitted effect of over 25% in size
# Protocol conditions: EPAC2 Rap1B-BODIPY-GDP exchange fluorescence, biochemical; series mostly up to 12.7 µM
Inconclusive results are not listed. Active and inactive are the calls of the source. Calls follow the shape of the dose curve; as a rule, active = well fitted inhibition curve with a large enough effect; inconclusive = small, poorly fitted or top-dose-only effect; inactive = no such curve, though single readings can be large or run the other way.
Your reply should match one of these outcome classes. y (active), n (inactive)

O=C1[C@H](Cc2ccccc2)NCCCC[C@H](c2ccco2)N1Cc1ccccc1 : n
C/C(=C\c1ccco1)CN1CCN(Cc2ccc(C)o2)C(CCO)C1 (stereo not given) : n
CCOC(=O)C1CCN(C(c2cc(OC)c(OC)c(OC)c2)c2sc3nc(C)nn3c2O)CC1 (stereo not given) : n
COc1cc(/C=C/CNC[C@H]2O[C@@H](n3cnc4c(=O)[nH]c(N)nc43)[C@H](O)[C@@H]2O)ccc1O : n

So what was the verdict on "Cc1nc2c(C(=O)NCCC(C)C)c[nH]n2c(=O)c1Cl" in this test? y

Look up the recorded call for "CCCCOC(=O)CSc1nnc(-c2ccc(Cl)cc2Cl)o1" in this test. n

In this assay, the call recorded for COc1ccc(NC(=O)c2ccc(NC3=NC4CS(=O)(=O)CC4S3)cc2)cc1 (stereo not given) was what? n

Record request — test call for CCCN1C(=O)c2[nH]nc(-c3ccccc3)c2C1c1cccc(O)c1 (stereo not given) n

Record request — test call for "O=C(Cc1ccccc1)O/N=C1\CCCc2ccccc21" n

Could you check what this test reported for "O=C(OCC(=O)N1CCN(S(=O)(=O)c2ccc(Cl)cc2)CC1)c1cccc(OC(F)F)c1" ? n
